Tested on: Amaranthus retroflexus
run.description: Glasshouse assay for herbicidal activity, post-emergence, AMARE
Assay type: in vivo
conditions: Amaranthus retroflexus, 312 h, 250 g/ha, visual 13 days after application, 100%=total damage, read-out: Percentage phytotoxicity AMARE
Listed here are molecules together with their documented pest or weed control at 250 g/ha.

# molecule, pest or weed control at 250 g/ha, %
data = [
    ("CC#Cc1ccc(C2C(=O)C3CCC(C3)C2=O)c(CC)c1 (centres unmarked) [Compound A17]", 0),
    ("C#CCOC1=C(c2ccc(C#CC)cc2OC)C(=O)C2CCC1C2 (centres unmarked) [Compound P2]", 0),
    ("CC#Cc1ccc(C2C(=O)C3CCC(C3)C2=O)c(OCCOC)c1 (centres unmarked) [Compound A15]", 0),
    ("CC#Cc1ccc(C2C(=O)CC(CCSC)CC2=O)c(OC)c1 (centres unmarked) [Compound A9]", 20),
    ("C=CCOC1=C(c2ccc(C#CC)cc2OC)C(=O)C2CCC1C2 (centres unmarked) [Compound P3]", 10),
]

src = patent US10662138B2
